molecular target: Peroxisome proliferator-activated receptor gamma (Homo sapiens) (UniProt P37231); assay: qHTS assay to identify small molecule antagonists of the peroxisome proliferator-activated receptor gamma (PPARg) signaling pathway (AID 743191); conditions: HEK293H PPARg-UAS-bla, beta-lactamase ratio, antagonist, 17 h; series mostly up to 62.6 µM; note: nearly all actives have a fitted effect of over 30% in size
Sequence (P37231 whole entry, looked up): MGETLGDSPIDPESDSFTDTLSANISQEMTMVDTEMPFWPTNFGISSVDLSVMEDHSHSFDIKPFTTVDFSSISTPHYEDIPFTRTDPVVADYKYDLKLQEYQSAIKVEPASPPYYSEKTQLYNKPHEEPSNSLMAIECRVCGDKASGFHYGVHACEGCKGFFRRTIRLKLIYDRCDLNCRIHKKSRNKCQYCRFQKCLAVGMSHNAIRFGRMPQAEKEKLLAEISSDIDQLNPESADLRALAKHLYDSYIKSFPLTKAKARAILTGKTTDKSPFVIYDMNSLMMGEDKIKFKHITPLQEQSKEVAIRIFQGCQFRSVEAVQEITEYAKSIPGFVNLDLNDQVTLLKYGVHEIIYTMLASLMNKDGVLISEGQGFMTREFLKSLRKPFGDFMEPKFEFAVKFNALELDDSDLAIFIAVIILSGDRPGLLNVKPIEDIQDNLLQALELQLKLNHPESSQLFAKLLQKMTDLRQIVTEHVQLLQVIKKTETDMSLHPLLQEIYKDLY
Records with an inconclusive call do not appear. Calls of active or inactive are those of the source. Calls come from the whole dose curve.
Could you please pick one outcome from this set? active, inactive

Ask: Dear colleague, could you share the recorded outcome for `Cc1ccc(S(=O)(=O)NC(=O)NC2CCCC2)cc1` when you have a moment?
Result: inactive

Ask: Dear colleague, could you share the recorded outcome for `Cc1c(N=C=O)cccc1N=C=O` when you have a moment?
Result: inactive

Ask: Dear colleague, could you share the recorded outcome for `O=C(OCCN1CCOCC1)c1cccnc1Nc1cccc(C(F)(F)F)c1` when you have a moment?
Result: inactive

Ask: Dear colleague, could you share the recorded outcome for `CC(C)(C)c1ccc(CCC=O)cc1` when you have a moment?
Result: inactive

Ask: Dear colleague, could you share the recorded outcome for `CC1=C(C)C(=O)C(CCCCC#CCCCC#CCO)=C(C)C1=O` when you have a moment?
Result: active

Ask: Dear colleague, could you share the recorded outcome for `C=C(C)C(=O)OCCCCCCCCCCOC(=O)C(=C)C` when you have a moment?
Result: inactive

Ask: Dear colleague, could you share the recorded outcome for `O=S(=O)(O)c1cc(Cl)c(Cl)cc1Cl` when you have a moment?
Result: inactive

Ask: Dear colleague, could you share the recorded outcome for `CC(=O)OCC(=O)[C@@]1(O)CC[C@H]2[C@@H]3CCC4=CC(=O)C=C[C@]4(C)[C@@]3(F)[C@@H](O)C[C@@]21C` when you have a moment?
Result: inactive

Ask: Dear colleague, could you share the recorded outcome for `CC(C)Cc1nccs1` when you have a moment?
Result: inactive

Ask: Dear colleague, could you share the recorded outcome for CC(O)C(C)O (stereo not drawn) when you have a moment?
Result: inactive

Ask: Dear colleague, could you share the recorded outcome for `Cc1cccc(C)c1NC(=O)CN1CCCC1` when you have a moment?
Result: inactive

Ask: Dear colleague, could you share the recorded outcome for `C=Cc1ccc(C=C)cc1` when you have a moment?
Result: inactive

Ask: Dear colleague, could you share the recorded outcome for `CNc1ccccc1` when you have a moment?
Result: inactive
